# Tested on: Escherichia coli IAI1
# assay text: fold change of Putrescine concentration vs plate DMSO controls (fold change (ratio)); higher = more amine produced, active = hit call of the paper (significant change in both replicates, either direction)
# protocol conditions: incubation time: 27 h, anaerobic, 37 °C
Structures can show the parent of a compound that is named as a salt.
Label yes (1) when fold change of Putrescine concentration >= 1; otherwise no (0).

Here's what some known entries look like.
>>> label("CN(C)CCN(Cc1ccc(Cl)cc1)c1ccccn1 [Chloropyramine hydrochloride] (20 µM)")
"no (0)"
>>> label("C[C@H]1COc2c(N3CCN(C)CC3)c(F)cc3c(=O)c(C(=O)O)cn1c23 [Levofloxacin] (20 µM)")
"no (0)"
>>> label("Nc1nc(=O)[nH]cc1F [Flucytosine] (20 µM)")
"no (0)"
>>> label("Cc1cccc(C)c1NC(=O)CN1CCN(CCCC(c2ccc(F)cc2)c2ccc(F)cc2)CC1 [Lidoflazine] (20 µM)")
"yes (1)"
>>> label("Cc1cc(N)c2ccccc2[n+]1CCCCCCCCCC[n+]1c(C)cc(N)c2ccccc21 [Dequalinium dichloride] (20 µM)")
"no (0)"
>>> label("O=C1Cc2cc(CCN3CCN(c4nsc5ccccc45)CC3)c(Cl)cc2N1 [Ziprasidone hydrochloride monohydrate] (20 µM)")
"yes (1)"
>>> label("Nc1c2c(nc3ccccc13)CCCC2 [Tacrine hydrochloride] (20 µM)")
"no (0)"
>>> label("Cc1ncc([N+](=O)[O-])n1C [Dimetridazole] (20 µM)")
"yes (1)"
>>> label("O=C(O)Cc1sc(-c2ccccc2)nc1-c1ccc(Cl)cc1 [Fentiazac] (20 µM)")
"yes (1)"
>>> label("CC(C(=O)O)c1cccc(C(=O)c2ccccc2)c1 (configuration not stated) [Ketoprofen] (20 µM)")
"yes (1)"

Confirm if fold change of Putrescine concentration reported for the compound CC1COc2c(N3CCN(C)CC3)c(F)cc3c(=O)c(C(=O)O)cn1c23 (configuration not stated) [Ofloxacin] (20 µM) is 1 or above.
no (0)

Confirm if fold change of Putrescine concentration reported for the compound CCCCC1C(=O)N(c2ccccc2)N(c2ccc(O)cc2)C1=O (configuration not stated) [Oxyphenbutazone] (20 µM) is 1 or above.
yes (1)

Confirm if fold change of Putrescine concentration reported for the compound CCOC(=O)C(C)(N)Cc1cc(I)c(Oc2cc(I)c(O)c(I)c2)c(I)c1 (configuration not stated) [Etiroxate hydrochloride] (20 µM) is 1 or above.
no (0)

Confirm if fold change of Putrescine concentration reported for the compound CC(=O)N(CC(O)CN(C(C)=O)c1c(I)c(C(=O)NCC(O)CO)c(I)c(C(=O)NCC(O)CO)c1I)c1c(I)c(C(=O)NCC(O)CO)c(I)c(C(=O)NCC(O)CO)c1I (configuration not stated) [Iodixanol] (20 µM) is 1 or above.
yes (1)

Confirm if fold change of Putrescine concentration reported for the compound Cc1ccccc1C(=O)Nc1ccc(C(=O)N2CCCC(O)c3cc(Cl)ccc32)c(C)c1 (configuration not stated) [Tolvaptan] (20 µM) is 1 or above.
no (0)

Confirm if fold change of Putrescine concentration reported for the compound OCC1(O)OC[C@@H](O)[C@@H](O)[C@H]1O (some centres not stated) [Psicose] (50 µM) is 1 or above.
yes (1)
